All values here come from patent US20140072563A1.

- Study System: T1, hErbB3.mFc (soluble dimeric human ErbB3 extracellular domain fused to mouse Fc) (human)
- T1 construct: called dimeric
- T1 chain: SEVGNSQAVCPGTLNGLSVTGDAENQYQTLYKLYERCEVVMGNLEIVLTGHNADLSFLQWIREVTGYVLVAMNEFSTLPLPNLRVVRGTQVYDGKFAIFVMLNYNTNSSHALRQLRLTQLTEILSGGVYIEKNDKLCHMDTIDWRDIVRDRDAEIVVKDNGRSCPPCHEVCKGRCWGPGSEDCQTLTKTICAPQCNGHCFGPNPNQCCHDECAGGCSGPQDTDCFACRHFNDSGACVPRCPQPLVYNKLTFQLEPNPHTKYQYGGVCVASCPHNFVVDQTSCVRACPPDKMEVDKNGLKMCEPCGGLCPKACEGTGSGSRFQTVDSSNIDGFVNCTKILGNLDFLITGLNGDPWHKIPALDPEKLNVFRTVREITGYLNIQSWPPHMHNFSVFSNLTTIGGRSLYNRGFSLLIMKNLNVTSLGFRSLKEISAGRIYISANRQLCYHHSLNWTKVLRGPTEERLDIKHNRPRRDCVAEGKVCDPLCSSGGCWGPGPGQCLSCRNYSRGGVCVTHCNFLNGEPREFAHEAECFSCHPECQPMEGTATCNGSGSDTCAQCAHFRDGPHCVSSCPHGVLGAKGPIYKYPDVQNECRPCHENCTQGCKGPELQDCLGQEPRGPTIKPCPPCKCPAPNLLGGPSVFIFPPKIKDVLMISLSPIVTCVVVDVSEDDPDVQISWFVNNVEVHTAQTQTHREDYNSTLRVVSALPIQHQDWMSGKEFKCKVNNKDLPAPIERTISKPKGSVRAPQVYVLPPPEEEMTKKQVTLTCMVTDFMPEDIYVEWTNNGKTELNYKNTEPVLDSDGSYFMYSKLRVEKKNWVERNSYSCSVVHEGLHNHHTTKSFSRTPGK
- Measurement Protocol: SPR (Biacore), 25 C, mAb capture format
Assign T½ to each entry below.
Give bare numbers, in h.

INSERT INTO results (binder, property, unit_string, readout_value) VALUES
  ('H4H2143P (antibody, V domains shown, Fully human, human IgG4 Fc (H4H prefix)) VH: EVQLVESGGGLVQPGRSLRLSCAASGFTFGDYAMHWVRQAPGKGLEWVSGINLNSGTIGYADSVKGRFTISRDNAKNSLYLQMNSLRAEDTAFYYCAKDIDGYYHYAMDVWGQGTTVTVSS VL: DVVMTQSPSFLSASVGDRVTITCWASQGISSYLAWYQQKPGKAPKLLIYDASTLESGVPSRFSGSGSGTEFTLTISNLQPEDFATYYCQQVNSYPLTFGGGTKVEIKR', 'T½', 'h', 38.4);

Respectfully, I request T½ for each entry included below.
1. H4H2148P (antibody, V domains shown, Fully human, human IgG4 Fc (H4H prefix)) VH: EVQLVESGGGLVHPGRSLRLSCAASGFTFDDYAMHWVRQSPGKGLEWVSGISWNSVIKHSTDSVRGRFTISRDNAKNSLYLQMNSLKPEDTAFYYCAKDEDDWNYLDYWGQGTLVTVSS VL: DIQMTQSPSSVSASVGDRVTITCRASQDINSWLAWYQQKPGKAPKLLIYTSSNLQSGVPSRFSGSGSGTDFTLTISSLQPEDFATYYCQQSDSFPFTFGPGTKVDIKR
2. H4H2147P (antibody, V domains shown, Fully human, human IgG4 Fc (H4H prefix)) VH: QVQLVESGGGLVKPGGSLRLSCAASGFTFSDFNMGWIRQAPGKGLEWVSHISGSGNVIYYADSVKGRFAISRDNGKNSLYLQVNSLRAEDTAVYYCARDIGDSDAFDIWGQGTMVTVSS VL: DIQLTQSPSFLSASVGDRVTITCWASQDISSYLAWYQQKPGKAPKLLIYGASTLESGVPSRFSGSGSGTEFTLTISSLQPEDVATYYCQQLNTYPLTFGGGTKVEIKR
3. H4H2290P (antibody, V domains shown, Fully human, human IgG4 Fc (H4H prefix)) VH: EVQLLESGGGLVQPGGSLRLSCVASGFTFSSFAMSWVRQAPGKGLEWVSVISGSGGSTNHADSVRGRFTISRDNSLNTVYLQMHSLRAEDTALYYCVKAETSSSYFYYGMDVWGQGTTVTVSS VL: DIQLTQSPSFLSASVGDRVTITCWASQDISSYLAWYQQKPGKVPNLLIYGASSLQPGVPSRFSGSGSGTEFTLTISSLQPEDFATYYCQQLNNYPTFGGGTKLEIKR
4. H4H2108P (antibody, V domains shown, Fully human, human IgG4 Fc (H4H prefix)) VH: EVQLLESGGDLVQPGGSLRLSCATSGFSFSSDAMNWVRQAPGKGLEWVSGISGSGGNTYYADSVKGRFTISRDISKSTLSLQMNSLRAEDTAVYYCAKEGTNMVRGVVMEDNGMDVWGQGTTVTVSA VL: DIQMTQSPSSVSASVGDRVTITCRASQGISDYLAWYQQKPGKAPKLLIYAASSLQSGVPSRFSGRGSGTDFTLTISTLQPEDFATYYCQQANSFPLTFGGGTKVDIKR

A:
[102, 38.8, 15.8, 41]
